# Test system: SNB-75 CNS
# PROTOCOL TEXT: NCI tumour cell line growth inhibition, 48 h
Known TGI of a selection of compounds

Use these answered entries as a reference point.
COc1cc(Nc2ncc3c(n2)-c2ccc(Cl)cc2C(c2c(F)cccc2OC)=NC3)ccc1C(=O)O = 24.6 µM
O=C(NCCO)c1c(O)c2ccccc2[nH]c1=O = > 100 µM

stdin: # get_value(readout='TGI', item= Nc1c(C(=O)Nc2cccc3ccccc23)sc2nc3c(cc12)CCCC3 )
stdout: > 100 µM

stdin: Quick one: TGI of O=c1c2cc(-c3ccccc3)cnc2sn1-c1ccc([N+](=O)[O-])cc1 ?
stdout: > 100 µM

stdin: Fill blank: measured TGI of the compound c1ccc(C(CCN2CCCC2)c2ccccn2)cc1 (stereo unspecified) is ____.
stdout: > 100 µM

stdin: Param item = CC(C)OC(=O)c1ccc(CCC2=CC(=O)C(Br)=CC2=O)cc1 ; retrieve measured TGI.
stdout: 32.5 µM

stdin: Given the compound CC(/C=N/NC1=NCCCCN1)=N\NC1=NCCCCN1 , what is its reported TGI?
stdout: > 100 µM

stdin: TGI for O=C1c2ccccc2C(=O)N1C(=S)c1ccccc1 ?
stdout: > 100 µM

stdin: # lookup: TGI of O=C([C@H](O)[C@@H](O)c1ccc(Br)cc1)C12CC3CC(CC(C3)C1)C2
stdout: 8.2 µM

stdin: Please look up its TGI: CCCCNC(=S)/N=C/c1c(O)c2ccccc2oc1=O
stdout: > 100 µM

stdin: Consider the compound shown here: O=C1c2cnccc2Cc2cccc3c2N1c1ccccc1S3 What is its recorded TGI?
stdout: 48.5 µM

* * *

# Tested on: A549 NSCLC
# PROTOCOL TEXT: NCI tumour cell line growth inhibition, 48 h
RESULT TYPE: TGI

Worked cases, TGI given:
COc1cc(NCC(C#N)C#N)ccc1N=Nc1ccc([N+](=O)[O-])cc1 = > 100 µM
NC(=O)Nc1ccc2ncnc(Nc3ccc(Cl)cc3)c2c1 = > 100 µM
COc1cc(C/C=C/c2ccccc2)c(OC)cc1O = > 100 µM
Cc1cc2nc3ccc(N=Nc4ccc(N(C)C)cc4)cc3n(-c3ccccc3)c-2cc1=N = 0.264 µM
COc1ccc(N2CCN(c3ccc4c(c3)NCC(=O)N4)CC2)cc1 = > 100 µM
CN(N)C(=O)NCCCl = > 100 µM

stdin: Look up TGI: Cc1ccccc1NC(=S)N/N=C(/c1ccccc1)c1ccccn1
stdout: 11.8 µM

* * *

# Tested on: SN12C renal
# PROTOCOL TEXT: NCI tumour cell line growth inhibition, 48 h
RESULT TYPE: log10 of TGI (log10 of the value in µM)
The figures below represent log10 of TGI, where TGI is stated in µM.

COc1cc(/C=C/C(=O)c2c(C)n([O-])c3cc(C)c(C)cc3[n+]2=O)cc(OC)c1OC = 1.63

Moving on to another compound below.
stdin: Reported log10 of TGI for Sc1nnc(-c2ccccc2Nc2ccccc2-c2nnc(S)n2-c2ccccc2)n1-c1ccccc1 : what is it?
stdout: 1.86

* * *

# Tested on: SW-620 colon
# PROTOCOL TEXT: NCI tumour cell line growth inhibition, 48 h; in the data active means GI50 below about 0.43 µM; inactive means the rest
The reply should be one of these categories: 1 for active, -1 for inactive

// below: answered molecules
Clc1ccccc1-c1nc2ccccc2[nH]1 = -1
O=C1CC(c2ccccc2)Cc2nc3ccc(Cl)cc3cc21 (stereo not given) = 1
COc1ccc(C(=O)Nc2ncc(Cc3ccc(F)cc3)s2)cc1 = 1

stdin: Write down the call the test reported for this molecule. Item: Cc1sc2nc(-c3ccccn3)c(/C=N/N=C(N)N)n2c1C
stdout: -1

stdin: Could you please tell me the result logged for COc1cc(/C=C/C(=O)c2c(C)n([O-])c3cc(C)c(C)cc3[n+]2=O)cc(OC)c1OC in this assay?
stdout: -1

stdin: Called result for NC(=O)Nc1ccc2ncnc(Nc3ccc(Cl)cc3)c2c1
stdout: -1

stdin: Dear colleague, could you share the recorded outcome for Oc1c(I)cc(I)cc1CNCCCN(Cc1ccccn1)Cc1ccccn1 when you have a moment?
stdout: -1

stdin: Per the assay record, what outcome was assigned to CC(C)(C)c1ccc(C(=O)N/N=C/c2ccc(O)cc2O)cc1 ?
stdout: -1

stdin: Would you mind telling me which call this test gave O=C(Cc1ccccc1)Nc1nnc(CCSCCc2nnc(NC(=O)Cc3ccccc3)s2)s1 ?
stdout: -1

Origin of values: PubChem BioAssay (NCI)
